System: Veronica persica
Assay: Pre-emergence herbicidal action, VERPE
Assay type: in vivo
Set-up: key: % activity: 100 = plants have died, 0 = like control plants
Conditions: comparative experiment, 20 g of a.i./ha
Text: 1. Pre-Emergence Herbicidal Action Against Harmful Plants Seeds of monocotyledonous and dicotyledonous weed plants and crop plants are laid out in sandy loam soil in wood-fiber pots and covered with soil. […] The damage to the test plants is scored visually after a test period of 3 weeks by comparison with untreated controls (herbicidal activity in percent (%): 100% activity=the plants have died, 0% activity=like control plants). […]
Items are presented alongside their recorded Herbicidal action against VERPE.
Give the figure by itself; no unit, no explanation.

Example entries and their recorded answers appear below.
[
  {
    "MOLECULE": "Cn1nnnc1NC(=O)c1ccc(C(F)(F)F)c(S(C)(=O)=O)c1Br [Example V-10, reference compound]",
    "TARGET ENTITY": "Veronica persica",
    "EXPERIMENTAL RESULT": 60
  },
  {
    "MOLECULE": "CCSc1c(C(F)(F)F)ccc(C(=O)Nc2nnnn2C)c1Cl [Example V-4, reference compound]",
    "TARGET ENTITY": "Veronica persica",
    "EXPERIMENTAL RESULT": 80
  },
  {
    "MOLECULE": "Cn1nnnc1NC(=O)c1ccc(I)c(S(C)(=O)=O)c1Cl [Example V-7, reference compound]",
    "TARGET ENTITY": "Veronica persica",
    "EXPERIMENTAL RESULT": 40
  },
  {
    "MOLECULE": "CSCc1c(Cl)ccc(C(=O)Nc2nnnn2C)c1C",
    "TARGET ENTITY": "Veronica persica",
    "EXPERIMENTAL RESULT": 50
  },
  {
    "MOLECULE": "CSCc1c(I)ccc(C(=O)Nc2nnnn2C)c1Cl",
    "TARGET ENTITY": "Veronica persica",
    "EXPERIMENTAL RESULT": 60
  }
]

Exam item: Give Herbicidal action against VERPE for CCSCc1c(C(F)(F)F)ccc(C(=O)Nc2nnnn2C)c1Cl tested on Veronica persica.
Marked response: 100

Exam item: Specify Herbicidal action against VERPE for Cn1nnnc1NC(=O)c1ccc(I)c(CS(C)(=O)=O)c1Cl , system Veronica persica.
Marked response: 100

Exam item: Give reported Herbicidal action against VERPE for Cn1nnnc1NC(=O)c1ccc(C(F)(F)F)c(CS(C)(=O)=O)c1Br (Veronica persica)
Marked response: 100

Exam item: GET Herbicidal action against VERPE where system = Veronica persica and item = CSc1c(I)ccc(C(=O)Nc2nnnn2C)c1Cl [Example V-5, reference compound]
Marked response: 0

Exam item: # return Herbicidal action against VERPE for CCSCc1c(C(F)(F)F)ccc(C(=O)Nc2nnnn2C)c1SCC , test system: Veronica persica
Marked response: 90

Exam item: // fetch Herbicidal action against VERPE; item: CCSc1c(C(=O)Nc2nnnn2C)ccc(C(F)(F)F)c1SCC [Example V-3, reference compound] ; system: Veronica persica
Marked response: 0

----------
system: Echinochloa crus-galli; experiment: Pre-emergence herbicidal action, ECHCG; assay type: in vivo; design: key: % activity: 100 = plants have died, 0 = like control plants; details: comparative experiment, 20 g of a.i./ha
Measured Herbicidal action against ECHCG by item
Field format: numeric only.

[
  {
    "COMPOUND": "CSc1c(C(=O)Nc2nnnn2C)ccc(C(F)(F)F)c1CS(C)(=O)=O",
    "EXPERIMENTAL RESULT": 90
  }
]

Exam item: For the compound Cn1nnnc1NC(=O)c1ccc(I)c(CS(C)(=O)=O)c1Cl , report Herbicidal action against ECHCG.
Marked response: 90

Exam item: Indicate its recorded Herbicidal action against ECHCG; the compound in question is CSCc1c(C(F)F)ccc(C(=O)Nc2nnnn2C)c1Cl
Marked response: 100

Exam item: Tell me measured Herbicidal action against ECHCG for CCSCc1c(C(F)(F)F)ccc(C(=O)Nc2nnnn2C)c1SCC please.
Marked response: 80

Exam item: Please indicate Herbicidal action against ECHCG recorded for Cn1nnnc1NC(=O)c1ccc(C(F)(F)F)c(C[S+](C)[O-])c1Br (stereo not shown)
Marked response: 90

Exam item: # return recorded Herbicidal action against ECHCG for input CSCc1c(I)ccc(C(=O)Nc2nnnn2C)c1Cl
Marked response: 80

Exam item: Answer with reported Herbicidal action against ECHCG of CSc1c(C(=O)Nc2nnnn2C)ccc(C(F)(F)F)c1C[S+](C)[O-] (stereo not shown)
Marked response: 90
